Target: Ribosomal protein S6 kinase alpha-4 (Homo sapiens) (UniProt O75676)
Sequence (O75676 whole entry, looked up): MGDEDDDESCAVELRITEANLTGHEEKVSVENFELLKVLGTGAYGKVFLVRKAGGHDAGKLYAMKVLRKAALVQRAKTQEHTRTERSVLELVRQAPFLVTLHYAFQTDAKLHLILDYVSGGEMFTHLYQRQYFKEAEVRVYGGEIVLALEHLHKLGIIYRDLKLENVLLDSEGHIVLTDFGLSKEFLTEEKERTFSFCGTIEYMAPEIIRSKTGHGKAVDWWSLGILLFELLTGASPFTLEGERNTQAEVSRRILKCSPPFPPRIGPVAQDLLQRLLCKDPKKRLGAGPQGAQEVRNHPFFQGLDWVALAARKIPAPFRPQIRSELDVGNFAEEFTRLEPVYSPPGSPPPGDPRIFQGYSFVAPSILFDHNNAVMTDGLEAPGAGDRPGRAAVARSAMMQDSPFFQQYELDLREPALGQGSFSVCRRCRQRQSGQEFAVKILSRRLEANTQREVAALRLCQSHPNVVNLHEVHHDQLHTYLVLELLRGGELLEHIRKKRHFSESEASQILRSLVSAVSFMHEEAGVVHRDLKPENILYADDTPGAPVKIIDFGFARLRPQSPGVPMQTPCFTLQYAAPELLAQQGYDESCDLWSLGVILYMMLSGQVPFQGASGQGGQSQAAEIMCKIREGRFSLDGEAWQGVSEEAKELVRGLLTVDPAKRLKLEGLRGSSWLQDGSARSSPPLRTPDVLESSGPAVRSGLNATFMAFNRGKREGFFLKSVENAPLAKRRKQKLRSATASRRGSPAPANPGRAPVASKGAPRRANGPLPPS
Conditions: at 1 µM
Provide the recorded residual activity for the entries that follow.
Note: unit % is implicit; provide only the numeric part.

For the compound O=c1[nH]c2ccccc2n1C1CCN(Cc2ccc(-c3nc4cc5[nH]cnc5cc4nc3-c3ccccc3)cc2)CC1 , what residual activity is on record?
106

For the compound COC(=O)[C@@]1(O)C[C@H]2O[C@]1(C)n1c3ccccc3c3c4c(c5c6ccccc6n2c5c31)C(=O)NC4 , what residual activity is on record?
-1

For the compound CC(C)[C@H](CO)Nc1nc(Nc2cccc(Cl)c2)c2ncn(C(C)C)c2n1 , what residual activity is on record?
95

For the compound C[S+]([O-])c1ccc(-c2nc(-c3ccc(F)cc3)c(-c3ccncc3)[nH]2)cc1 (stereo not given) , what residual activity is on record?
102

For the compound CCn1cnc2c(Nc3cccc(Cl)c3)nc(N[C@@H]3CCCC[C@@H]3N)nc21 , what residual activity is on record?
79

* * *

Biological target: SRSF protein kinase 2 (Homo sapiens) (UniProt P78362)
Sequence (P78362 whole entry, looked up): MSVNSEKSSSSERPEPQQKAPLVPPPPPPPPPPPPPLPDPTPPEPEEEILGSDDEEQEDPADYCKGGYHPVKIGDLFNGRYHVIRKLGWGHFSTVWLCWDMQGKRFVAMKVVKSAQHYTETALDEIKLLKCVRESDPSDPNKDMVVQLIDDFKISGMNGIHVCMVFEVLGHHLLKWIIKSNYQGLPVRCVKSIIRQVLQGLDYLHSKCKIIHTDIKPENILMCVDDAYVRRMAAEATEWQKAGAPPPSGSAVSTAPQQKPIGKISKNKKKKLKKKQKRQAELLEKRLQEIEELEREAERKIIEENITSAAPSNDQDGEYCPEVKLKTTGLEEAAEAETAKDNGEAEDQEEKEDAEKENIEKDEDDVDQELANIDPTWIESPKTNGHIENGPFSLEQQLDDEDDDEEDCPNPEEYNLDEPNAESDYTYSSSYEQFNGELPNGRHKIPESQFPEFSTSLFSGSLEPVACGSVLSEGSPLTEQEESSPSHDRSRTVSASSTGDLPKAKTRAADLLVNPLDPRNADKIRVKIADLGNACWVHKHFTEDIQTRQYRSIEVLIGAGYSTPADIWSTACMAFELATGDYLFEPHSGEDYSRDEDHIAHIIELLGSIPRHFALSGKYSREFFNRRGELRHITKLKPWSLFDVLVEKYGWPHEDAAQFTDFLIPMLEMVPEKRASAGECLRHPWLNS
Conditions: at 10 µM
Simple rule here: residual activity less than 80% is Met, otherwise Not met.

State whether 80% exceeds residual activity recorded for COc1ccc2c(c[n+](C)c3c4cc5c(cc4ccc23)OCO5)c1OC .
Not met

State whether 80% exceeds residual activity recorded for COC(=O)[C@@]1(O)C[C@H]2O[C@]1(C)n1c3ccccc3c3c4c(c5c6ccccc6n2c5c31)C(=O)NC4 .
Met

State whether 80% exceeds residual activity recorded for COc1cc(OC)c(/C=C2\C(=O)Nc3ccccc32)c(OC)c1 .
Not met

* * *

Target: High affinity nerve growth factor receptor (Homo sapiens)
Settings: at 10 µM
Measurement type: residual activity
Just so you know, I need the unit written after the number.

For the compound c1cc(-c2cnn3cc(-c4ccc(OCCN5CCCCC5)cc4)cnc23)ccn1 , what residual activity is on record?
2%

For the compound O=C1NC(=O)c2c1c1c3ccccc3n3c1c1c2c2ccccc2n1C1CCC3O1 , what residual activity is on record?
3%

For the compound COc1ccc2c(c1)/C(=C/c1cnc[nH]1)C(=O)N2 , what residual activity is on record?
0%

For the compound COc1cc2ncnc(Nc3ccc(OCc4ccccc4)cc3)c2cc1OC , what residual activity is on record?
72%

For the compound C[S+]([O-])c1ccc(-c2nc(-c3ccc(F)cc3)c(-c3ccncc3)[nH]2)cc1 (stereo not given) , what residual activity is on record?
115%

* * *

Molecular target: RAC-gamma serine/threonine-protein kinase (Homo sapiens) (UniProt Q9Y243)
Sequence (Q9Y243 whole entry): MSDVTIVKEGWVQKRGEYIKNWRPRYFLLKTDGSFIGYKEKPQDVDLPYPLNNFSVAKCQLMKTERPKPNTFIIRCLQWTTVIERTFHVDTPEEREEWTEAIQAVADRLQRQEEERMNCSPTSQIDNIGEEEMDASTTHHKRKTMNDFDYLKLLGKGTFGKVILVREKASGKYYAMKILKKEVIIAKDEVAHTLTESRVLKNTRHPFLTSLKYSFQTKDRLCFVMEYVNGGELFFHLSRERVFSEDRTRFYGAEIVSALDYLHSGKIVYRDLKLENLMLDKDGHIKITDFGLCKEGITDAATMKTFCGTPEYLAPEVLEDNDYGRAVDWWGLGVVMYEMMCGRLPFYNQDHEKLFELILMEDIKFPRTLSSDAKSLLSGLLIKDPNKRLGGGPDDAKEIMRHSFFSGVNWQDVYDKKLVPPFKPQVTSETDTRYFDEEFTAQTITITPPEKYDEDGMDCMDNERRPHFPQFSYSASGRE
Details: at 10 µM
Measurement type: residual activity (%)
Note: unit % is implicit; provide only the numeric part.

For the compound COC(=O)[C@@]1(O)C[C@H]2O[C@]1(C)n1c3ccccc3c3c4c(c5c6ccccc6n2c5c31)C(=O)NC4 , what residual activity is on record?
3

For the compound COc1cc(OC)c(/C=C2\C(=O)Nc3ccccc32)c(OC)c1 , what residual activity is on record?
80

For the compound O=[N+]([O-])/C=C/c1ccc2c(c1)OCO2 , what residual activity is on record?
106

For the compound O=C1Nc2ccc3ncsc3c2/C1=C/c1c[nH]cn1 , what residual activity is on record?
30

* * *

Provide the recorded residual activity for the entries that follow.
Target: Serine/threonine-protein kinase tousled-like 2 (Homo sapiens)
Details: at 1 µM

For the compound COc1cc2ncnc(Nc3ccc(OCc4ccccc4)cc3)c2cc1OC , what residual activity is on record?
115%

For the compound COC(=O)[C@@]1(O)C[C@H]2O[C@]1(C)n1c3ccccc3c3c4c(c5c6ccccc6n2c5c31)C(=O)NC4 , what residual activity is on record?
1%

For the compound O=c1[nH]c2ccccc2n1C1CCN(Cc2ccc(-c3nc4cc5[nH]cnc5cc4nc3-c3ccccc3)cc2)CC1 , what residual activity is on record?
104%

For the compound O=[N+]([O-])/C=C/c1ccc2c(c1)OCO2 , what residual activity is on record?
99%

For the compound CCn1cnc2c(Nc3cccc(Cl)c3)nc(N[C@@H]3CCCC[C@@H]3N)nc21 , what residual activity is on record?
31%

* * *

Target: G protein-coupled receptor kinase 6 (Homo sapiens)
Conditions: at 1 µM
Measurement type: residual activity (%)
Note: unit % is implicit; provide only the numeric part.

Item COc1cc2ncnc(Nc3ccc(O)c(Br)c3)c2cc1OC with G protein-coupled receptor kinase 6 (Homo sapiens) - residual activity?
85

Item COc1ccc(CNc2nc(N(CCO)CCO)nc3c2ncn3C(C)C)cc1 with G protein-coupled receptor kinase 6 (Homo sapiens) - residual activity?
95

Item C[S+]([O-])c1ccc(-c2nc(-c3ccc(F)cc3)c(-c3ccncc3)[nH]2)cc1 (stereo unspecified) with G protein-coupled receptor kinase 6 (Homo sapiens) - residual activity?
107

Item O=[N+]([O-])c1ccc(-c2nc(-c3ccc(F)cc3)c(-c3ccncc3)[nH]2)cc1 with G protein-coupled receptor kinase 6 (Homo sapiens) - residual activity?
102

Item COc1ccc(C(=O)Nc2sc3c(c2C(N)=O)CCCC3)cc1OC with G protein-coupled receptor kinase 6 (Homo sapiens) - residual activity?
90

Item O=C(O)/C=C/c1cc(Br)c(Br)c(Br)c1Br with G protein-coupled receptor kinase 6 (Homo sapiens) - residual activity?
99

* * *

Provide the recorded residual activity for the entries that follow.
Biological target: Fibroblast growth factor receptor 4 (Homo sapiens)
Details: at 10 µM
Note: unit % is implicit; provide only the numeric part.

For the molecule O=C1c2ccccc2-c2nc3nnnn3nc21 , what residual activity is on record?
106

For the molecule O=C1Nc2ccc3ncsc3c2/C1=C/c1c[nH]cn1 , what residual activity is on record?
84

For the molecule O=[N+]([O-])/C=C/c1ccc2c(c1)OCO2 , what residual activity is on record?
104

For the molecule CC(C)(C)c1cc(C=C(C#N)C#N)cc(Br)c1O , what residual activity is on record?
102

For the molecule O=c1[nH]c2ccccc2n1C1CCN(Cc2ccc(-c3nc4cc5[nH]cnc5cc4nc3-c3ccccc3)cc2)CC1 , what residual activity is on record?
88

For the molecule COc1cc2ncnc(Nc3ccc(OCc4ccccc4)cc3)c2cc1OC , what residual activity is on record?
99

* * *

Target: Dual specificity mitogen-activated protein kinase kinase 7 (Homo sapiens) (UniProt O14733)
Sequence (O14733 whole entry): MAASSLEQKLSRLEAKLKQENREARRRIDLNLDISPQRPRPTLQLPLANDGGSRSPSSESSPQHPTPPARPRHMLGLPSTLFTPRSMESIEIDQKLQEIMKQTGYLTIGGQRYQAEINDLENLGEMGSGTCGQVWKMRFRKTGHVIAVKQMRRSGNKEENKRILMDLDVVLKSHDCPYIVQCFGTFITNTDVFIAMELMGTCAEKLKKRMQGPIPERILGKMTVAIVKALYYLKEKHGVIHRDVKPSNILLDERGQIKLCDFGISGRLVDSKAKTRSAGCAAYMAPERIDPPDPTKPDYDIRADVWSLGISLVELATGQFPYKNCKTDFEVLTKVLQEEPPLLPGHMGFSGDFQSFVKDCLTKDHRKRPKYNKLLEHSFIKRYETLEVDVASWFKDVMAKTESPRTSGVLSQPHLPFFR
Conditions: at 10 µM
Measurement type: residual activity (%)
Note: unit % is implicit; provide only the numeric part.

For the molecule COc1cc(OC)c(/C=C2\C(=O)Nc3ccccc32)c(OC)c1 , what residual activity is on record?
96

For the molecule O=C1c2ccccc2-c2nc3nnnn3nc21 , what residual activity is on record?
39

For the molecule O=c1[nH]c2ccccc2n1C1CCN(Cc2ccc(-c3nc4cc5[nH]cnc5cc4nc3-c3ccccc3)cc2)CC1 , what residual activity is on record?
112

* * *

Target: MAP kinase-activated protein kinase 3 (Homo sapiens) (UniProt Q16644)
Sequence (Q16644 whole entry, looked up): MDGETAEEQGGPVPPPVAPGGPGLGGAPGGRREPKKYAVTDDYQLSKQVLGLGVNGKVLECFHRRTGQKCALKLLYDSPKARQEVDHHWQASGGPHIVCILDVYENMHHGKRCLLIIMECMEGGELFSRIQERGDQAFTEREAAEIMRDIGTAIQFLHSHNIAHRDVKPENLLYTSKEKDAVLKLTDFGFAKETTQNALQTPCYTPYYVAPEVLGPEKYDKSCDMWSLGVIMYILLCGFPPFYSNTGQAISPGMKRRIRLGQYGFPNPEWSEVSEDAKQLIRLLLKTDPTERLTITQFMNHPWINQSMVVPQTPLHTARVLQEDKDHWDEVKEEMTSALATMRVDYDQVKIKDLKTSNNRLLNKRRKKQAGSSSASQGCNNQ
Conditions: at 1 µM
Provide the recorded residual activity for the entries that follow.
Note: unit % is implicit; provide only the numeric part.

For the compound Cc1ccc(S(=O)(=O)/C=C/C#N)cc1 , what residual activity is on record?
94

For the compound O=c1[nH]c2ccccc2n1C1CCN(Cc2ccc(-c3nc4cc5[nH]cnc5cc4nc3-c3ccccc3)cc2)CC1 , what residual activity is on record?
106

For the compound NC(=O)Nc1sc(-c2ccc(F)cc2)cc1C(N)=O , what residual activity is on record?
98

For the compound CCOc1cc2ncnc(Nc3cccc(Br)c3)c2cc1OCC , what residual activity is on record?
106

For the compound COc1ccc(CNc2nc(N(CCO)CCO)nc3c2ncn3C(C)C)cc1 , what residual activity is on record?
110

For the compound O=C1C(Cl)=C(N2C(=O)CCC2=O)C(=O)c2ccccc21 , what residual activity is on record?
101

For the compound Nc1ccc2ncnc(NCCc3ccc(Oc4ccccc4)cc3)c2c1 , what residual activity is on record?
117

* * *

Target: Mitogen-activated protein kinase kinase kinase 5 (Homo sapiens) (UniProt Q99683)
Sequence (Q99683 whole entry): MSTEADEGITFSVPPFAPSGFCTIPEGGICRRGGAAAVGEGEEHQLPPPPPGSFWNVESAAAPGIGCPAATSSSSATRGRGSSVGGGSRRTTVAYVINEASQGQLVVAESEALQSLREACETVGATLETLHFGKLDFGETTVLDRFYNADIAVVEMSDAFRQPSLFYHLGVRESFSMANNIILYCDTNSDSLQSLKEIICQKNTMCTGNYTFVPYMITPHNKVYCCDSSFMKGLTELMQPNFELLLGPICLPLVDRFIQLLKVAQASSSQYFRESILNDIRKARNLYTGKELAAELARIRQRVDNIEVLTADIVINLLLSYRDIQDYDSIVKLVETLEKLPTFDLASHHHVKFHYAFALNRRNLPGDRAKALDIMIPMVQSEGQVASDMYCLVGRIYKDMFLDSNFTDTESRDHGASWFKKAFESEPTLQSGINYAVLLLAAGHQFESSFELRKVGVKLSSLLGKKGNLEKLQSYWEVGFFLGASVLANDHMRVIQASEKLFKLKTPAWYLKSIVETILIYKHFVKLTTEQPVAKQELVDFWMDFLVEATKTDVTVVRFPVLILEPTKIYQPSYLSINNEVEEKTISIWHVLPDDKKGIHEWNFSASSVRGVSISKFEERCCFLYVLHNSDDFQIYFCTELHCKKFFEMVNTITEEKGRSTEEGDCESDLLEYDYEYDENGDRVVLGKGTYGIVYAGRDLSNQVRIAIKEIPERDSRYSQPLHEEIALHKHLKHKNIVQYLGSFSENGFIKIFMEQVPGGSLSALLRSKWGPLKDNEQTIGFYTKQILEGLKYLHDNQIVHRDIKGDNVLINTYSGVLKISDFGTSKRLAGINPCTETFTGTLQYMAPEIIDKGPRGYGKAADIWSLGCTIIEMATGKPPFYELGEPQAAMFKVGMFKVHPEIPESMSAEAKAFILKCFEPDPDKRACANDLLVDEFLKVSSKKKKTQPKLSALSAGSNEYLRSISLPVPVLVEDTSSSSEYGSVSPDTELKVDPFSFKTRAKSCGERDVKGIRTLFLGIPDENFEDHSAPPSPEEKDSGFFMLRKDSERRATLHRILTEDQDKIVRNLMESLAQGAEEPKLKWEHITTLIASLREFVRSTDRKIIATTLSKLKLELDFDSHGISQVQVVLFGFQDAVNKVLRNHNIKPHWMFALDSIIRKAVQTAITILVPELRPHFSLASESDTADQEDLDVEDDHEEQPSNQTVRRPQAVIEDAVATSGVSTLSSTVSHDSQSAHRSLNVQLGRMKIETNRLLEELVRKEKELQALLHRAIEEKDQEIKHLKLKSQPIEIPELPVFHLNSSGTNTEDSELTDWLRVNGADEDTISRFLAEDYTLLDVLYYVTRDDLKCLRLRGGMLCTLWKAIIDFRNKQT
Conditions: at 10 µM
Provide the recorded residual activity for the entries that follow.
Just so you know, I need the unit written after the number.

For the compound CCn1cnc2c(Nc3cccc(Cl)c3)nc(N[C@@H]3CCCC[C@@H]3N)nc21 , what residual activity is on record?
89%

For the compound CC(C)[C@H](CO)Nc1nc(Nc2cccc(Cl)c2)c2ncn(C(C)C)c2n1 , what residual activity is on record?
96%

For the compound O=[N+]([O-])/C=C/c1ccc2c(c1)OCO2 , what residual activity is on record?
90%

For the compound COC(=O)[C@@]1(O)C[C@H]2O[C@]1(C)n1c3ccccc3c3c4c(c5c6ccccc6n2c5c31)C(=O)NC4 , what residual activity is on record?
0%

For the compound COc1cc2ncnc(Nc3ccc(OCc4ccccc4)cc3)c2cc1OC , what residual activity is on record?
92%
